target: YES1 (human) (UniProt P07947); assay: KINOMEscan competition binding; details: compound 10.0 µM
Sequence (P07947 whole entry, looked up): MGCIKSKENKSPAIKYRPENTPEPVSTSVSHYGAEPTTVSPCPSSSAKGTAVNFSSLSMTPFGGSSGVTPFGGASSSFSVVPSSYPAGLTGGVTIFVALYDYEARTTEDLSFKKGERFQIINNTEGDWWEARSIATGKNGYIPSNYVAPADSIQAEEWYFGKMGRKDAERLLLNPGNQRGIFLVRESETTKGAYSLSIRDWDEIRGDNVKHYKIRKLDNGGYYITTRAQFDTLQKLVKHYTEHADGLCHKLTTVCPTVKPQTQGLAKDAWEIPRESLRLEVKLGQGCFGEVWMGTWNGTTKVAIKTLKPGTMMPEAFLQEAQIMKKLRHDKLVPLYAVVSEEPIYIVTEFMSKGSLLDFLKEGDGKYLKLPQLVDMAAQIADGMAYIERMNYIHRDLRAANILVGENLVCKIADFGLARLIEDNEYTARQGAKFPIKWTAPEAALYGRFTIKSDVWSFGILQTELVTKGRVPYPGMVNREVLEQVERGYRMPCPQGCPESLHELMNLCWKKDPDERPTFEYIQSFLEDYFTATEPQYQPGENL
This listing pairs compounds with measured kinase still bound, per cent of control.
MEASURED_PARAMETER: kinase still bound, per cent of control (%)

> print(dat)
                              sample.smiles  obs.value
1  COc1cc(N2CCN(C)CC2)ccc1Nc1ncc2c(n1)Nc1ccccc1NC2=O         68
2  O=C1NC(=O)/C(=C/c2c[nH]c(=O)c(-c3ccc(N4CCNCC4)nc3)c2)S1         97
3  COc1cc(N2CCC(O)CC2)ccc1Nc1ncc2c(n1)N1CCc3cccc(c31)C(=O)N2C         99
4  COc1cc(N2CCN(C)CC2)ccc1Nc1ncc2c(n1)N(C)c1ccccc1N(C)C2=O        100
5  CN1C(=O)c2ccccc2N(C)c2nc(Nc3ccc(N4CCC(O)CC4)cc3)ncc21         38
6  CN1CCN(c2ccc(C(=O)Nc3ncc4c(n3)N(C)c3ccccc3C(=O)N4C)cc2)CC1         96
7  CN1C(=O)c2ccccc2N(C)c2nc(NS(=O)(=O)c3ccc(N)cc3)ncc21        100
8  COc1cc(N2CCN(C)CC2)ccc1Nc1ncc2c(n1)N(C)c1sccc1C(=O)N2C         87

###

tested on: KIT (human), P10721 [V559D/T670I]; assay: KINOMEscan competition binding; details: compound 10.0 µM
Sequence (P10721 whole entry V559D/T670I, looked up): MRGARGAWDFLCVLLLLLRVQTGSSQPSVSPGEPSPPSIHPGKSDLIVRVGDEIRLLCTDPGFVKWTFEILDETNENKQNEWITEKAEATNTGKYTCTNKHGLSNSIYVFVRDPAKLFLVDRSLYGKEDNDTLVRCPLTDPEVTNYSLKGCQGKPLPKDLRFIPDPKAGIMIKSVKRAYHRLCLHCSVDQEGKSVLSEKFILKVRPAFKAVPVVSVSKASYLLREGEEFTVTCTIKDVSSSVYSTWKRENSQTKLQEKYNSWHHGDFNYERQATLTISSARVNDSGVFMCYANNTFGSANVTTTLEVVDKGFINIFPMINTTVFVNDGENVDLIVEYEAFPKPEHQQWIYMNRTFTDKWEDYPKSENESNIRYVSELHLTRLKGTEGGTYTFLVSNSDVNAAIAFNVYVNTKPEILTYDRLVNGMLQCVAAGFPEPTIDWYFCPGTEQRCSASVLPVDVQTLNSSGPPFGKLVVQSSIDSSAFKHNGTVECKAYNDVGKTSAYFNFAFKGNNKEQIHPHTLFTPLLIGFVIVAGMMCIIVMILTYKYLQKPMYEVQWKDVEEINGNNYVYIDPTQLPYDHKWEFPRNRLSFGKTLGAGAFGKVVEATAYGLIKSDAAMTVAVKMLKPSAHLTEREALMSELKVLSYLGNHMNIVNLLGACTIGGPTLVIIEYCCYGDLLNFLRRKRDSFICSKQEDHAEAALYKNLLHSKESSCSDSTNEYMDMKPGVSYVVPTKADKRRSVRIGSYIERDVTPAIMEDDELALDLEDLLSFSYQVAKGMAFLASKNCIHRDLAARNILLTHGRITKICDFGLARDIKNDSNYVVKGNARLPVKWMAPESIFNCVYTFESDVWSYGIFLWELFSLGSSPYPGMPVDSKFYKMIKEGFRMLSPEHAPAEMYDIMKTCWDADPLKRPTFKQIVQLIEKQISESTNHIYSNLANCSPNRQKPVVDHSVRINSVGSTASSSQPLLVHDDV
The label is MET for kinase still bound, per cent of control below 80% and NOT MET for kinase still bound, per cent of control equal to or exceeding 80%.

> print(dat)
                               sample.smiles                      system.tested  class.assignment
 1  CCN1CCN(Cc2cc(NC(=O)c3cccc4cc(-c5ccc(/C=C6\SC(=O)NC6=O)o5)ccc34)cc(C(F)(F)F)c2)CC1  KIT (human), P10721 [V559D/T670I]               MET
 2  COc1cc(N2CCN(C)CC2)ccc1Nc1ncc2c(n1)N(C)c1ccccc1N(C)C2=O  KIT (human), P10721 [V559D/T670I]           NOT MET
 3  COc1cc(N2CCN(C)CC2)ccc1Nc1ncc2c(n1)Nc1ccccc1NC2=O  KIT (human), P10721 [V559D/T670I]               MET
 4  CN1CCN(c2ccc(C(=O)Nc3ncc4c(n3)N(C)c3ccccc3C(=O)N4C)cc2)CC1  KIT (human), P10721 [V559D/T670I]               MET
 5  COc1cc(N2CCN(C)CC2)ccc1Nc1ncc2c(n1)N1CCC[C@H]1CC(=O)N2  KIT (human), P10721 [V559D/T670I]               MET
 6  N=C1NC(=O)/C(=C/c2ccc(-c3cncc4ccccc34)o2)S1  KIT (human), P10721 [V559D/T670I]               MET
 7  CS(=O)(=O)Nc1ccc(-c2ncc(/C=C3\SC(=N)NC3=O)s2)cc1  KIT (human), P10721 [V559D/T670I]               MET
 8  CS(=O)(=O)Nc1ccc(-c2cc(/C=C3\SC(=N)NC3=O)c[nH]c2=O)cc1  KIT (human), P10721 [V559D/T670I]               MET
 9  CN1C(=O)c2ccccc2N(C)c2nc(Nc3ccc(N4CCC(O)CC4)cc3)ncc21  KIT (human), P10721 [V559D/T670I]               MET
10  O=C1NC(=O)/C(=C/c2c[nH]c(=O)c(-c3ccc(N4CCNCC4)nc3)c2)S1  KIT (human), P10721 [V559D/T670I]               MET
11  CS(=O)(=O)Nc1ccc(-c2cncc(/C=C3\SC(=N)NC3=O)c2)cc1  KIT (human), P10721 [V559D/T670I]               MET
12  CN1C(=O)c2ccccc2N(C)c2nc(NS(=O)(=O)c3ccc(N)cc3)ncc21  KIT (human), P10721 [V559D/T670I]           NOT MET
